These measurements were taken from patent US7517840B2.

- ASSAY COMMENT: GC-MS headspace release profile of perfume in shampoo, 1/100 dilution in water
- Type: physicochemical
- TEST PARAMETERS: Tropical Fruit Perfume, 40 seconds
PROPERTY LABEL: GC Abundance

• CCCCCC1CCC(=O)O1 (stereo not shown) = 4000
• C=CC(C)(O)CCC=C(C)C (stereo not shown) = 18000
• CCOC(=O)C(C)CC (stereo not shown) [ETHYL 2-METHYLBUTYRATE, Ethyl 2-methylbutyrate] = 2000
• CC(C)CC1CC(C)(O)CCO1 (stereo not shown) = 10000
• CCCCCCC1CCC(=O)O1 (stereo not shown) [GAMMA-DECALACTONE, 5-Hexyldihydro-2(3H)-furanone] = 4000
• CCCCCCC(C=O)=Cc1ccccc1 = 2000
• CC(C=O)Cc1ccc2c(c1)OCO2 (stereo not shown) = 500
• CCCC(C)C(=O)OCC (stereo not shown) [MANZANATE, Ethyl 2-methylpentanoate] = 3000
• CC(=O)OC(C)(C)C1CC=C(C)CC1 (stereo not shown) [TERPINYL ACETATE] = 9000
• C=CCOC(=O)CCC1CCCCC1 [ALLYL CYCLOHEXYL PROPIONATE] = 7000
• CC(=O)OC(C)(C)Cc1ccccc1 [DIMETHYL BENZYL CARBINYL ACETATE] = 8000
• CCCC(=O)OCC [ETHYL BUTYRATE, Ethyl butyrate] = 2000
• CC(=O)OC1CCCCC1C(C)(C)C (stereo not shown) = 18000
• C=CC(C)(O)CCC=C(C)CC (mixture of isomers) = 10000
• OCc1ccccc1 = 50
• CC1OC(C)C2Cc3ccccc3C2O1 (stereo not shown) = 1000
• CCC(C)(O)CCC=C(C)C (stereo not shown) [DIHYDROLINALOOL] = 3000
• CC/C=C\CCOC(C)=O [CIS-3-HEXENYL ACETATE] = 14000
• C=CC(C)CCCC(C)(C)O (stereo not shown) [DIHYDROMYRCENOL] = 15000
• CC(=O)C=CC1=C(C)CCCC1(C)C = 10000
• CC(=O)OCc1ccccc1 [BENZYL ACETATE] = 18000
• C=CCOC(=O)CCCCCC [ALLYL HEPTOATE] = 12000
